The reported numbers originate from patent US8030547B2.

Predicted RS ratio reference
Target: GST fusion P171H/R172S mutant ALS protein (Oryza sativa subsp. japonica, UniProt Q6K2E8, P171H/R172S)
Construct: made in house; host or cells: E. coli JM109, pGEX-2T(ALS P171H, R172S mutant); crude supernatant
Sequence (Q6K2E8 44-644 P171H/R172S): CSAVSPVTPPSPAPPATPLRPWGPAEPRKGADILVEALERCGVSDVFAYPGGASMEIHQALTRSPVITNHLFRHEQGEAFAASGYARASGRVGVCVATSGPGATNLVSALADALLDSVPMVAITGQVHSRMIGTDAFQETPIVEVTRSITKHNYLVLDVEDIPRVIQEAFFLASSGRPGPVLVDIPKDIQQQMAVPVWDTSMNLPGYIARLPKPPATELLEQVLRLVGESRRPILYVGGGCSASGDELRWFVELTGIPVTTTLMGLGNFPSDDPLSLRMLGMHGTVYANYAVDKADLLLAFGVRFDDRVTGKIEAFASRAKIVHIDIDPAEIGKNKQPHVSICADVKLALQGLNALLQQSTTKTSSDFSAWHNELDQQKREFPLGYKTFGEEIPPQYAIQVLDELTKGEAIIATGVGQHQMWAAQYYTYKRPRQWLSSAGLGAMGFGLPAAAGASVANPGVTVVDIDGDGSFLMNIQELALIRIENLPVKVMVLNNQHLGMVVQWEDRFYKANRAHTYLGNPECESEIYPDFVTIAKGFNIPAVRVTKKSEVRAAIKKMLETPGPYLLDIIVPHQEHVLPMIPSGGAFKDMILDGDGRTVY
Experiment: Herbicide sensitivity of ALS protein expressed in E. coli (crude enzyme solution), P171H/R172S
Type: biochemical, rice (Oryza sativa var. Kinmaze)
Conditions: P171H/R172S mutant; product of RS ratios of the 1-point mutants
Returns: the value as a bare number; no unit string appended.

Known Predicted RS ratio results, listed for orientation:
# COMPOUND, MEASUREMENT
data = [
    ("COc1nc(C)nc(NC(=O)NS(=O)(=O)c2ccccc2Cl)n1 [chlorsulfuron]", 72),
    ("CON=C(C)c1cccc(Oc2nc(OC)cc(OC)n2)c1C(=O)O [pyriminobac]", 6),
    ("CC(C)C1(C)N=C(c2nc3ccccc3cc2C(=O)O)NC1=O (centres unmarked) [imazaquin]", 1.5),
    ("COc1cc(OC)nc(Oc2cccc(Oc3nc(OC)cc(OC)n3)c2C(=O)O)n1 [bispyribac-sodium]", 8.5),
]

Incoming: What does the record list as Predicted RS ratio for COc1cc(OC)nc(Sc2cccc(Cl)c2C(=O)O)n1 [pyrithiobac-sodium] ?
Outgoing: 3.4
